Exercise: state measured % Change Compared to pH 7.4 + Calcium for each of the binders provided.
- Target Or System: T1, recombinant, soluble human ASGR-1 (human, UniProt P07306 62-291)
- T1 construct: biotinylated in the binning assay; also called soluble huASGR-1; Soluble ASGR-1 (Amgen)
- T1 sequence: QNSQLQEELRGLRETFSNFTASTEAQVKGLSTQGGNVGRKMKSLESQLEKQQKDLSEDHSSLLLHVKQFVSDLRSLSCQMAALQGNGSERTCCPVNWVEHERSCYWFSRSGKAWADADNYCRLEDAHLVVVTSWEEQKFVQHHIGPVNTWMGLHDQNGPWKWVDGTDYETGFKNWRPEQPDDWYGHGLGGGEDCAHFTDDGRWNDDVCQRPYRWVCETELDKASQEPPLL
- Assay Comment: Octet BLI dissociation, pH 5.6 plus calcium
Express it in %; write the number only.

% Change Compared to pH 7.4 + Calcium in this record for 149F8 (antibody, V domains shown, hybridoma mAb) VH: EVQLLESGGGLVQPGGSLRLSCAASGFTFSSYAMSWVRQAPGKGLEWVSAISGRGGNTFYADSVKGRFTISRDNSKNTLYLQMNSLRAEDTAVYYCAKKDYDYVWGSPYFDYWGQGTLVTVSS VL: DIQMTQSPASVSASVGDRVTITCRASQGISNWLAWYQQKPGKAPKLLIYAASSLQSGVPSRFSGNESGTDFTLSISSLQPEDFAIYYCQQTDSFPFTFGPGTKVDVK : -8

% Change Compared to pH 7.4 + Calcium in this record for 197E11 (antibody, V domains shown, hybridoma mAb) VH: QVQLVESGGGVVQPGRSLRLSCAASGFTFRNYGMHWVRQAPGKGLEWVAVIWFDGSNDYYADSVKGRFTISRDNSKNTLSLQMNSLRAEDTAVYYCARDRSVGYDGLDVWGQGTTVTVSS VL: DIQMTQSPSSLSASVGDRVTITCRASQGINKYLSWFQQKPGKAPKSLIYAASSVQSGVPSKFSGSGSGTDFTLTISRLQPDDFATYYGQRYDTYPFTFGPGTKVDIK : -5

% Change Compared to pH 7.4 + Calcium in this record for 65D5 (antibody, V domains shown, hybridoma mAb) VH: QVQLVQSGAEVKKPGASVKVSCKASGYTFPSYGISWVRQAPGQGLEWMGWISAYSGNTNYAQKLQGRVTMTTDTSTSTAYMELRSLRSDDTAVYFCARGEAVAVFDPWGQGTLVTVSS VL: DIQMTQSPSSLSASVGDRVTITCRASQDINNYLAWFQQKPGKAPRSLIYAASSLHSGVPSQFSASGSGSDFTLTISSLQPEDFATYYCPLYKSYPLTFGPGTKVDIK : 7

% Change Compared to pH 7.4 + Calcium in this record for 75G3 (antibody, V domains shown, hybridoma mAb) VH: QVQLQQWGAGLLKPSETLSLTCAVYGGSLSGSYWSWIRQPPGKGLEWIGEINLSGSTNYNPSLKSRVTISVDTSKSQFSLTLRSVTAADTAVYYCARDYGGLDYWGQGTLVTVSS VL: EIVLTQSPGTLSLSPGERATLSCRARQNVDSSYLAWYQQKPGQAPRLLIYGASSRATGIPDRFSGSGSGTDFTLTISRLEPEDFAVFYCQQYERSPWTFGQGTKVEIK : -1

% Change Compared to pH 7.4 + Calcium in this record for 59F2 (antibody, V domains shown, hybridoma mAb) VH: EVQLVESGGGLVQPGGSLRLSCGASGFTFSSYSMNWVRQAPGKGLEWVSYISGSSNIIYYTDSVKGRFTISRDNAKNSLYLQMNSLRDEDTAVYYCARADTPMVLYFYGMDVWGQGTTVTVSS VL: SYELTQPPSVSVSPGQTASITCSGDKLGDKYASWYQQRPGQSPVLVIYQDNKRPSGIPERFSGSNSGNTATLTISGTQAMDEADYYCQAWDNNTVVFGGGTKLTVL : 52

% Change Compared to pH 7.4 + Calcium in this record for 85F7 (antibody, V domains shown, hybridoma mAb) VH: QVQLQQWGAGLLKPSEPLSLTCAVYGGSFSGPYWSWIRQPPGKGLEWIGEINHSGSTNYNPSLKSRVTISVDTSKNQFSLKLTSVTAADTAVYYCARDYGGLDVWGQGTTVTVSS VL: EPVLTQSPGTLSLSPGERATLSCRASQNIYSNYLAWYQQKPGQAPRLLIYGASSRATGIPDRFSGSGSGTDFTLTISRLEPEDFAVYCCQQYESSPWTFGQGTKVEIK : -2

% Change Compared to pH 7.4 + Calcium in this record for 58G11 (antibody, V domains shown, hybridoma mAb) VH: EVQLVESGGGLVQPGGSLRLSCAASGFTFSSYSMNWVRQAPGKGLEWISYISTSSSTIFYADSVKGRFTISRDSAKNSLYLQMNSLRDEDTAVYYCARGDTAMVLYYYGMDVWGQGTTVTVSS VL: SYELTQPPSVSVSPGQTASITCSGDKLGDKYASWYQQKPGQSPVLVIYQDNKRPSGIPERFSGSNSGNTATLTISGTQAMDEADYYCQAWNNNTVMFGGGTKLTVL : 12

% Change Compared to pH 7.4 + Calcium in this record for 74H7 (antibody, V domains shown, hybridoma mAb) VH: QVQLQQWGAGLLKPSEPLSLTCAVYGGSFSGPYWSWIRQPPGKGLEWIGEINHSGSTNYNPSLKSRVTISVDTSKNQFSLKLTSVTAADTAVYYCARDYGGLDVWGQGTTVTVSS VL: ELVLTQSPGTLSLSPGERATLSCRASQNIYSSYLAWYQQKPGQAPRLLIYGASSRATGIPDRFSGSGSGTDFTLTISRLEPEDFAVYCCQQYESSPWTFGQGTKVEIK : -2

% Change Compared to pH 7.4 + Calcium in this record for 60G2 (antibody, V domains shown, hybridoma mAb) VH: QVQLVESGGGVVQPGRSLRLSCAASGFTFSSYGMHWVRQAPGKGLEWVAVIWYDGSNKYYADSVKGRFTISRDNSKNTLYLQMNSLRAEDTAVYYCARRYSRSWTGGMDVWGQGTTVTVSS VL: DIVMTQTPLSLSVTPGQSASISCKSSQSLLHSEGKTYLYWYLQKPGQPPQLLIYEVSNRISGVPDRFSGSGSGTDFTLKISRVEAEDVGVYYCMQSIQLPLTFGGGTKVEIK : 7

% Change Compared to pH 7.4 + Calcium in this record for 62H10 (antibody, V domains shown, hybridoma mAb) VH: EVQLVESGGGLVKPGGSLRLSCAASGFTFSSYSMNWVRQAPGKGLEWVSSISSSSSYIYYADSVKGRFTISRDNAKNSLYLQMNSLRAEDTAVYYCARGGSRGFDPWGQGTLVTVSS VL: DIQMTQSPSSLSASVGDRVTITCRASQSITSYLNWYQQKPGKVPKLLISTASSLQSGVPSRFSGSGSGTDFTLTISSLQPEDFATYYCQQSHSFPFTFGPGTNVDFK : -2
